Every entry's value here was drawn from ChEMBL document CHEMBL1201862.

Tested on: SW-620
Test Summary: NCI tumour cell line growth inhibition, 48 h
The source made the active and inactive calls. No stated cut-off is given here; in the data, active = GI50 up to about 1.1 µM and inactive = higher.

- Compound: "O=C(CC(=O)N1N=C(N(c2ccccc2)c2ccccc2)CC1c1ccccc1)Nc1ccc(Cl)cc1 (stereo not given)"
  GI50: "> 100 µM (inactive)"
- Compound: "COc1ccc2oc(C(=O)O)c3c2c1CCC3"
  GI50: "> 100 µM (inactive)"
- Compound: "O=C(C=P(c1ccccc1)(c1ccccc1)c1ccccc1)c1ccc(-c2cccc([N+](=O)[O-])c2)s1"
  GI50: "38.2 µM (inactive)"
- Compound: "O=C1c2ccccc2CC1C1(O)C(=O)Nc2ccccc21 (stereo not given)"
  GI50: "> 100 µM (inactive)"
- Compound: "O=C(N/S(=N/S(=O)(=O)c1ccc(Br)cc1)C(Cl)(Cl)Cl)c1ccccc1 (stereo not given)"
  GI50: "> 100 µM (inactive)"
- Compound: "CC12OC3(C)OC(=O)C(c4ccccc4)(O1)C3(C)O2 (stereo not given)"
  GI50: "> 100 µM (inactive)"
- Compound: "COCC12CCC(OC)C34C5CC6(O)C(OC)C=C(C5C6OC(=O)c5ccccc5)C(C(OC)C13)C4N(C)C2 (stereo not given)"
  GI50: "> 100 µM (inactive)"
- Compound: "Cc1ccc2oc(=O)cc(CC(=O)O)c2c1"
  GI50: "> 100 µM (inactive)"
- Compound: "CC1(O)C(C)(O)C2(C)O[Te]3(OC12C)OC1(C)C(C)(O)C(C)(O)C1(C)O3 (stereo not given)"
  GI50: "> 10 µM (inactive)"
- Compound: "N#Cc1c(-c2ccc(Cl)c(Cl)c2)c(-c2ccc(Cl)c(Cl)c2)nn(CC(=O)O)c1=O"
  GI50: "53.6 µM (inactive)"
- Compound: "S=C(Nc1ccccc1)Nc1[nH]c(=S)sc1-c1nc2ccccc2[nH]1"
  GI50: "> 100 µM (inactive)"
- Compound: "C=CCc1cccc2cc(C(=O)NC3CCCCC3)c(=N)oc12"
  GI50: "33.4 µM (inactive)"
- Compound: "CC1(CO)COC(C)(C)OC1"
  GI50: "> 100 µM (inactive)"
- Compound: "Cc1cc(NCCCCCCCCNc2cc(C)nc3cc(N(C)C)ccc23)c2ccc(N(C)C)cc2n1"
  GI50: "6.81 µM (inactive)"
- Compound: "C[N+](C)(C)/N=C\\c1ccc(O)c(O)c1"
  GI50: "> 100 µM (inactive)"
- Compound: "CC(=O)Oc1ccc2c(C)cc(=O)oc2c1"
  GI50: "> 100 µM (inactive)"
- Compound: "COc1cc(/C=C2/SC(c3ccccc3)N(c3cccc(NC(C)=O)c3)C2=O)cc(OC)c1OC (stereo not given)"
  GI50: "57.1 µM (inactive)"
- Compound: "c1ccc2c(c1)nc1n2CNC1"
  GI50: "> 100 µM (inactive)"
- Compound: "COC(=O)NC1C(C)OC(OC2C/C=C(/C)C3C=CC4C(OC5CC(OC6CC(O)C(OC7CC(O)C(OC)C(C)O7)C(C)O6)C(O)C(C)O5)C(C)CC(C)C4C3(C)C(=O)C3=C(O)C4(CC(C)C(CO)=CC4/C=C\\2C)OC3=O)CC1(C)[N+](=O)[O-] (stereo not given)"
  GI50: "9.86 µM (inactive)"
- Compound: "COC(=O)CCC(NC(=S)N/N=C/c1cccs1)C(=O)OC (stereo not given)"
  GI50: "> 100 µM (inactive)"
